B1: Pistol ribozyme (parent)
chain: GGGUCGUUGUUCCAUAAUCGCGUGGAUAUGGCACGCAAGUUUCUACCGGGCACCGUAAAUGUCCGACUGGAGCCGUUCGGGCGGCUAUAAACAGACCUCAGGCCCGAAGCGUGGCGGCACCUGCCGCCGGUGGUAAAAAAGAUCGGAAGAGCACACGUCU

# Variants of: B1
# protocol summary: aptazyme ON/OFF ratio, guanine; higher = stronger switching; co-transcriptional cleavage with and without guanine
endpoint: aptazyme ON/OFF ratio

> print(dat)
                                mut               endpoint  measurement
 1  U7G U8G G9C U10A U11G C12A C13G  aptazyme ON/OFF ratio         1.12
 2       U7G U8A G9U U10G C12G C13U  aptazyme ON/OFF ratio         1.12
 3       U7C U8A G9A U10A C12A C13G  aptazyme ON/OFF ratio         1.18
 4      U7C G9U U10C U11A C12G C13A  aptazyme ON/OFF ratio         1.19
 5                    U7G U11C C12U  aptazyme ON/OFF ratio         1.27
 6  U7G U8C G9U U10A U11A C12U C13G  aptazyme ON/OFF ratio         1.16
 7       U7C U8G G9A U10C U11A C13U  aptazyme ON/OFF ratio         1.09
 8          U7G U10A U11A C12U C13G  aptazyme ON/OFF ratio         1.13
 9      U8G G9U U10A U11G C12A C13G  aptazyme ON/OFF ratio         1.06
10       U7A U8G G9A U10C U11A C12G  aptazyme ON/OFF ratio         1.13
11                U7G G9U C12G C13G  aptazyme ON/OFF ratio         1.22
12                    U7G U11A C13A  aptazyme ON/OFF ratio         1.16
13           U7A U8C U10C U11A C13A  aptazyme ON/OFF ratio         1.15
14               G9C U11G C12G C13U  aptazyme ON/OFF ratio         1.05
15  U7C U8A G9A U10C U11G C12U C13A  aptazyme ON/OFF ratio         1.17
16            U7A U8G G9A U11A C13U  aptazyme ON/OFF ratio         1.55
17           U7C U8C U11G C12U C13U  aptazyme ON/OFF ratio         1.22
18               U7C U11G C12U C13A  aptazyme ON/OFF ratio         1.13
19               G9A U10C U11A C13G  aptazyme ON/OFF ratio         1.14
20       U7G U8G G9C U11G C12G C13U  aptazyme ON/OFF ratio         1.18
21      U7A G9A U10G U11G C12U C13G  aptazyme ON/OFF ratio         1.33
22       U7C U8G G9A U10A U11C C12A  aptazyme ON/OFF ratio         1.21
23      U8C G9U U10A U11A C12G C13A  aptazyme ON/OFF ratio          1.2
24                              G9A  aptazyme ON/OFF ratio         3.41
25            U7A U8G G9C U11A C13U  aptazyme ON/OFF ratio         1.36
26            U7G U8C G9C U11A C12G  aptazyme ON/OFF ratio          1.2
27  U7A U8C G9C U10C U11G C12G C13A  aptazyme ON/OFF ratio         1.12
28  U7C U8G G9U U10A U11C C12G C13U  aptazyme ON/OFF ratio         1.19
29      U7G G9U U10G U11G C12A C13U  aptazyme ON/OFF ratio         1.19
30       U7C U8G G9A U11G C12A C13G  aptazyme ON/OFF ratio         1.17
31           U7C U8A U10A C12U C13U  aptazyme ON/OFF ratio          1.3
32                         U8C C13A  aptazyme ON/OFF ratio         1.36
33                 U7A U8A G9A U11A  aptazyme ON/OFF ratio         1.16
34           U7C G9A U11C C12G C13A  aptazyme ON/OFF ratio         1.29
35           U8A G9A U10G U11C C12G  aptazyme ON/OFF ratio          1.2
36  U7C U8A G9C U10G U11A C12A C13U  aptazyme ON/OFF ratio         1.33
37               U7A U10G U11C C13G  aptazyme ON/OFF ratio         1.08
38      U7A U8A U10C U11G C12A C13G  aptazyme ON/OFF ratio         1.16
39       U7A U8C G9U U10A U11A C13U  aptazyme ON/OFF ratio         1.16
40      U7G U8A U10A U11G C12U C13A  aptazyme ON/OFF ratio         1.38
41           U8C G9C U10C U11G C12U  aptazyme ON/OFF ratio         1.07
42           U7G U8C U10A U11A C12G  aptazyme ON/OFF ratio         1.13
43            U7C U8A G9C U10G C12G  aptazyme ON/OFF ratio         1.28
44      U7G U8C U10A U11G C12A C13A  aptazyme ON/OFF ratio         1.08
45       U7G U8C G9U U10A U11A C13U  aptazyme ON/OFF ratio         1.79
46               U7C U10C U11C C12A  aptazyme ON/OFF ratio         1.29
